Taken from PubChem BioAssay (NCI).

Test: NCI Yeast Anticancer Drug Screen. Data for the bub3 strain (AID 167)
Conditions: S. cerevisiae bub3 mutant strain, at 50.0 µM (retest, dose inferred, filed as 5.0)
This is part of a sample that, as a whole, favours compounds with a hit. Of some 79,000 tested, about 15% had one in any assay. The source made the active and inactive calls. No stated cut-off is given here; in the data, active means growth inhibition above about 70%; inactive means the rest.
Outcomes: active, inactive

molecule | answerLabel
Cc1nc(Nc2ccc(Cl)cc2)sc1C(=O)NNC(=S)NN | active
CCCCCCCCCCCCSC(=NCC)NCC | active
CCCCOC(=O)c1n[nH]c(C)c1N=NN(C)C | active
CCCCN(CCCC)CC(=O)c1ccc2cc(Cl)c3ccccc3c2c1 | active
Cc1ccccc1C(=N)c1ccccc1Cc1cccc2ccccc12 | active
CC1(C)CNCC(C)(OCc2ccccc2)C(=O)NC(C)(C)CNCC(C)(OCc2ccccc2)C(=O)N1 (stereo not given) | inactive
Cc1cc2c(cc1C)C(=O)OC2=O | inactive
C[Si](C)(CCC(=O)O)O[Si](C)(C)CCC(=O)O | active
CC(=O)N1CCCC2=C1CCCCCCCCCC2 | inactive
O=C(O)c1ccccc1C(c1ccccc1)c1ccccc1 | active
